- Tested on: NCI-H838
- Test Method Notes: relative viability (nuclei count vs DMSO), 5 days (fraction); higher = more cells survive
- Condition Label: first compound 0.08 µM
Recorded Endpoint: relative viability
No unit in the answer, only the number.

Input: State measured relative viability of the compound O=c1cc(-c2cccc3c2Sc2ccccc2S3)oc(N2CCOCC2)c1 + CC(=O)c1c(C)c2cnc(Nc3ccc(N4CCNCC4)cn3)nc2n(C2CCCC2)c1=O [Palbociclib] (partner 0.5 µM) with NCI-H838.
Output: 0.187

Input: State measured relative viability of the compound COc1nc(C)cnc1NS(=O)(=O)c1cccnc1-c1ccc(-c2nnco2)cc1 [Zibotentan] + CS(=O)(=O)N1CCN(Cc2cc3nc(-c4cccc5[nH]ncc45)nc(N4CCOCC4)c3s2)CC1 [Pictilisib] (partner 1 µM) with NCI-H838.
Output: 0.451

Input: State measured relative viability of the compound COc1nc(C)cnc1NS(=O)(=O)c1cccnc1-c1ccc(-c2nnco2)cc1 [Zibotentan] + Cc1nc(Nc2ncc(C(=O)Nc3c(C)cccc3Cl)s2)cc(N2CCN(CCO)CC2)n1 [Dasatinib] (partner 0.075 µM) with NCI-H838.
Output: 0.28

Input: State measured relative viability of the compound COc1nc(C)cnc1NS(=O)(=O)c1cccnc1-c1ccc(-c2nnco2)cc1 [Zibotentan] + CC1(C)CCC(c2ccc(Cl)cc2)=C(CN2CCN(c3ccc(C(=O)NS(=O)(=O)c4ccc(N[C@H](CCN5CCOCC5)CSc5ccccc5)c(S(=O)(=O)C(F)(F)F)c4)cc3)CC2)C1 [Navitoclax] (partner 0.5 µM) with NCI-H838.
Output: 1.15

Input: State measured relative viability of the compound COc1nc(C)cnc1NS(=O)(=O)c1cccnc1-c1ccc(-c2nnco2)cc1 [Zibotentan] + CCNC(=O)c1noc(-c2cc(C(C)C)c(O)cc2O)c1-c1ccc(CN2CCOCC2)cc1 [Luminespib] (partner 0.01 µM) with NCI-H838.
Output: 0.21

Input: State measured relative viability of the compound O=c1cc(-c2cccc3c2Sc2ccccc2S3)oc(N2CCOCC2)c1 + O=C(CCCCCCC(=O)Nc1ccccc1)NO [Vorinostat] (partner 1 µM) with NCI-H838.
Output: 0.746

Input: State measured relative viability of the compound COc1nc(C)cnc1NS(=O)(=O)c1cccnc1-c1ccc(-c2nnco2)cc1 [Zibotentan] + CC(C)C[C@H](NC(=O)[C@H](Cc1ccccc1)NC(=O)c1cnccn1)B(O)O [Bortezomib] (partner 0.002 µM) with NCI-H838.
Output: 0.891

Input: State measured relative viability of the compound O=c1cc(-c2cccc3c2Sc2ccccc2S3)oc(N2CCOCC2)c1 + C[C@@H](Oc1cc(-c2cnn(C3CCNCC3)c2)cnc1N)c1c(Cl)ccc(F)c1Cl [Crizotinib] (partner 1 µM) with NCI-H838.
Output: 0.883

Input: State measured relative viability of the compound O=c1cc(-c2cccc3c2Sc2ccccc2S3)oc(N2CCOCC2)c1 + CCNC(=O)c1noc(-c2cc(C(C)C)c(O)cc2O)c1-c1ccc(CN2CCOCC2)cc1 [Luminespib] (partner 0.01 µM) with NCI-H838.
Output: 0.277

Input: State measured relative viability of the compound O=c1cc(-c2cccc3c2Sc2ccccc2S3)oc(N2CCOCC2)c1 + Cc1nc(Nc2ncc(C(=O)Nc3c(C)cccc3Cl)s2)cc(N2CCN(CCO)CC2)n1 [Dasatinib] (partner 0.075 µM) with NCI-H838.
Output: 0.273

Input: State measured relative viability of the compound O=c1cc(-c2cccc3c2Sc2ccccc2S3)oc(N2CCOCC2)c1 + C[C@]1(O)C[C@@H](c2nc(-c3ccc4ccc(-c5ccccc5)nc4c3)c3c(N)nccn32)C1 [Linsitinib] (partner 1 µM) with NCI-H838.
Output: 0.958

Input: State measured relative viability of the compound COc1nc(C)cnc1NS(=O)(=O)c1cccnc1-c1ccc(-c2nnco2)cc1 [Zibotentan] + N=C(N)NC(=N)NCCc1ccccc1 [Phenformin] (partner 250 µM) with NCI-H838.
Output: 0.586

Input: State measured relative viability of the compound COc1nc(C)cnc1NS(=O)(=O)c1cccnc1-c1ccc(-c2nnco2)cc1 [Zibotentan] + O=C(c1cc(Cc2n[nH]c(=O)c3ccccc23)ccc1F)N1CCN(C(=O)C2CC2)CC1 [Olaparib] (partner 8 µM) with NCI-H838.
Output: 0.756

These entries and their values trace back to the supplement of paper PMC10307832.
